B1: LINE1-mini (parent)
chain: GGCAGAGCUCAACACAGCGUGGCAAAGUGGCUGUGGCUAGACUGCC

variants of: B1; assay: self-cleavage, relative activity (ratio to wild type); higher = more cleavage; in vitro, sequencing; the parent is a self-cleaving ribozyme
Binary classification by self-cleavage, with 0.1 as an inclusive lower bound for label 1; all other cases are label 0.

GGCAGAGCUCAACACAUCGUGUCAAAGUGGCUGUGGCUAGACUGCC [G17U G22U]; label 1
GGCAGAGCUCAACACAGCGUGGCAAAGUGGCUGUGCCUAGACUUCC [G36C G44U]; label 0

IN: Given GGCAGAGCUCAACAUAGCGUGGCAAAGUUGCUGUGGCUAGACUGCC [C15U G29U] , state whether its self-cleavage is at least 0.1.
OUT: label 1

IN: hey, is self-cleavage for this one >= 0.1? GGGAGAGCUCAACACAGCGUGGCAAAGUGGCUGUGGCUCGACUGCC [C3G A39C]
OUT: label 1

IN: Is it the case that GGCAGAGCUCAACACAGUGUGGCAAAGUUGCUGUGGCUAGACUGCC [C18U G29U] has self-cleavage reaching or exceeding 0.1?
OUT: label 1

IN: Would you say GGCAGAGCUCAACACAGCGUUGCAAAGUUGCUGUGGCUAGACUGCC [G21U G29U] shows self-cleavage at minimum 0.1?
OUT: label 1

IN: Assess whether reported self-cleavage for GGCAUAGCUCAACACCGCGUGGCAAAGUGGCUGUGGCUAGACUGCC [G5U A16C] sits at 0.1 or higher.
OUT: label 0

IN: Form field: self-cleavage at least 0.1? Entry: GGCAGAGCUCAACACAGCGUGGCAAAGUGGCUAUGGCUCGACUGCC [G33A A39C]
OUT: label 0

IN: For this variant, is measured self-cleavage 0.1 or higher? GGCAGAGCUCAACGCAGCGUGGCAAAGUGGAUGUGGCUAGACUGCC [A14G C31A]
OUT: label 0

IN: Determine whether this variant has self-cleavage no lower than 0.1: GGCAGAGCUCAAAACAGCGUGUCAAAGUGGCUGUGGCUAGACUGCC [C13A G22U]
OUT: label 1

Hey, just so you know, these numbers are from the RNAGym collection of RNA variant scans (doi:10.7554/elife.90254).
